FYI, the data here is from patent US10695348B2.

- Assayed Target: human TRPA1 (Homo sapiens, UniProt O75762)
- Construct: expressed in transfected cells; host or cells: CHO cells
- Sequence (O75762 whole entry): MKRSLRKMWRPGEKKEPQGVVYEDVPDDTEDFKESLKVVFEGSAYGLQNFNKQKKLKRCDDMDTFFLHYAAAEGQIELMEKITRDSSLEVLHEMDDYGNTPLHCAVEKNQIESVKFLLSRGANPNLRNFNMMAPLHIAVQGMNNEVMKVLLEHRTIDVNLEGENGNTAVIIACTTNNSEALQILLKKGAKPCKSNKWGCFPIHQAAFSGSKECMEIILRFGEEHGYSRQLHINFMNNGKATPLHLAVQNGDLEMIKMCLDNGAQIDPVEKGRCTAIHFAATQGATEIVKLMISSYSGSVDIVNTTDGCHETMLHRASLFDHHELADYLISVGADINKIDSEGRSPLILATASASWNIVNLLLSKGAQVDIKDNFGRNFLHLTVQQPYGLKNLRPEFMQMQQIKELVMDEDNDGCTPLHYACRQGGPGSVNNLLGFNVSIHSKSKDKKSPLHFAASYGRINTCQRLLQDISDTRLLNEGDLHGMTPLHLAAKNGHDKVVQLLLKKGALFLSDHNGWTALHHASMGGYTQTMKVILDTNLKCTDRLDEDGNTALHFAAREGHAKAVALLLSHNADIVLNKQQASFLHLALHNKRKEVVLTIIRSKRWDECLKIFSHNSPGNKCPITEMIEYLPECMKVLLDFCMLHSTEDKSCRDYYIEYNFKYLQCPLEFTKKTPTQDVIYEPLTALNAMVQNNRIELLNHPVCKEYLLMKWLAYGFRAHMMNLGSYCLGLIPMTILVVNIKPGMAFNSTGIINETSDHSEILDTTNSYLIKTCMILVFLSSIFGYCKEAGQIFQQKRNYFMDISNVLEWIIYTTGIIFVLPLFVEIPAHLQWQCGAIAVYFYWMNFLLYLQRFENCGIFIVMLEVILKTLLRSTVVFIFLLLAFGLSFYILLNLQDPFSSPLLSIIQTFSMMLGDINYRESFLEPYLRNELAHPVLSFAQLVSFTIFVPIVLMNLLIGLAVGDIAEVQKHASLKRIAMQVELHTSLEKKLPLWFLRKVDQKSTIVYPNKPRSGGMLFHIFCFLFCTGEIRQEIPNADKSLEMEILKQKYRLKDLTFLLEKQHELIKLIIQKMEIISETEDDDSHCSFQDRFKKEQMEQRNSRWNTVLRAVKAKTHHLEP
- Procedure Details: FLIPR Tetra calcium influx assay, CHO cells expressing TRPA1, cinnamaldehyde agonist (hTRPA1 CHO Ca2+ AUC EVO)
- Assay type: cell-based
- Experimental Context: CHO cells expressing human TRPA1; 75 uM cinnamaldehyde; Hill coefficient fixed to 1.5; read-out: hTRPA1 IC50 (hTRPA1 CHO Ca2+ AUC EVO (IC50))
IC50 strictly under 30 nM means TRUE; at 30 nM or over means FALSE.

Compound	Assayed Target	Label
C[C@H]1[C@H](F)C[C@@H](C(=O)NCc2cc(-c3cnc(C(F)(F)F)nc3)ncc2C(F)(F)F)N1S(=O)(=O)c1cc2cnccc2o1 [[5]]	human TRPA1 (Homo sapiens, UniProt O75762)	TRUE
C[C@H]1[C@H](F)C[C@@H](C(=O)NCc2cc(-c3cnc(C(F)(F)F)nc3)ccc2C#N)N1S(=O)(=O)c1ccc(F)cn1 [[10]]	human TRPA1 (Homo sapiens, UniProt O75762)	FALSE
C[C@H]1[C@H](F)C[C@@H](C(=O)NCc2cc(-c3cnc(C(F)(F)F)nc3)ncc2C(F)(F)F)N1S(=O)(=O)c1ccc(Cl)cn1 [[6]]	human TRPA1 (Homo sapiens, UniProt O75762)	TRUE
C[C@H]1[C@H](F)C[C@@H](C(=O)NCc2cc(-c3cnc(C(F)(F)F)nc3)ncc2C(F)(F)F)N1S(=O)(=O)c1ccc(F)cn1 [[1]]	human TRPA1 (Homo sapiens, UniProt O75762)	TRUE
C[C@H]1[C@H](F)C[C@@H](C(=O)NCc2cc(-c3cnc(C(F)(F)F)nc3)ncc2C(F)(F)F)N1S(=O)(=O)c1cccnc1 [[2]]	human TRPA1 (Homo sapiens, UniProt O75762)	FALSE
C[C@H]1[C@H](F)C[C@@H](C(=O)NCc2cc(-c3cnc(C(F)(F)F)nc3)cnc2C(F)(F)F)N1S(=O)(=O)c1ccc(F)cn1 [[15]]	human TRPA1 (Homo sapiens, UniProt O75762)	FALSE
